Values were extracted from PubChem BioAssay (NCI).

- Test system: NCI-H460 lung
- experimental details: NCI tumour cell line growth inhibition, 48 h
Measured TGI of individual entries

given smiles: Clc1ccc(OCc2nnc(CCCCCCCCc3nnc(COc4ccc(Cl)cc4)n3Nc3ccccc3)n2Nc2ccccc2)cc1
target or test system: NCI-H460 lung
readout label: TGI
value observed: > 100 µM
--
given smiles: Oc1ccc(NCc2nc3ccccc3[nH]2)cc1
target or test system: NCI-H460 lung
readout label: TGI
value observed: > 100 µM
--
given smiles: CCC(=O)Oc1c2ccsc2c(OC(=O)CC)c2ccsc12
target or test system: NCI-H460 lung
readout label: TGI
value observed: 3.87 µM
--
given smiles: COC(=O)c1ccc(C=Nc2ccc(S(N)(=O)=O)cc2)cc1
target or test system: NCI-H460 lung
readout label: TGI
value observed: > 100 µM

So what's the measured TGI for this one? O=c1/c(=C/c2ccco2)sc2nc3ccccc3n12
> 100 µM

So what's the measured TGI for this one? O=C1/C(=C/c2ccccc2)CNC/C1=C\c1ccccc1
3.08 µM

So what's the measured TGI for this one? CNC(=O)N(CCC#N)[C@H]1CCCC[C@@H]1N(C(=O)NC)c1ccccc1
> 100 µM

###

- Test system: MALME-3M melanoma
- experimental details: NCI tumour cell line growth inhibition, 48 h
Measured TGI of individual entries

So what's the measured TGI for this one? COC(=O)/C=C/c1cc(OC)c(OC)c(OC)c1
> 100 µM

So what's the measured TGI for this one? CC(C)(C)[Si](C)(C)OCC1OC(n2cnc3c(N)ncnc32)C(O[Si](C)(C)C(C)(C)C)C1O[Si](C)(C)C(C)(C)C (configuration not stated)
> 100 µM

So what's the measured TGI for this one? NC(N)=NS(=O)(=O)c1ccc(NC(=O)c2ccc3nc4ccccc4c(Nc4ccc(S(=O)(=O)N=C(N)N)cc4)c3c2)cc1
> 100 µM

So what's the measured TGI for this one? O=C(O)C(CS)N=c1c2ccccc2n(O)c2ccccc12 (configuration not stated)
> 100 µM

So what's the measured TGI for this one? CC1CC(=O)Nc2nc3ccccc3n21 (configuration not stated)
> 100 µM

So what's the measured TGI for this one? CC(C)(C)C1CCC2(CC1)c1[nH]c3ccccc3c1C1(CCC(C(C)(C)C)CC1)c1[nH]c3ccccc3c12 (configuration not stated)
> 100 µM

So what's the measured TGI for this one? CCOC(=O)C1=C(OC(OCC)C(CC)[Se]c2ccccc2)CCCC1 (configuration not stated)
97.7 µM

So what's the measured TGI for this one? O=C1CCCCN1CCCCC#Cc1ccccc1C#Cc1ccc([N+](=O)[O-])cc1
> 100 µM

So what's the measured TGI for this one? CCC[CH2][Sn]([CH2]CCC)([O]C(=O)c1cccnc1SC)[O]C(=O)c1cccnc1SC
1.49 µM

So what's the measured TGI for this one? COCC1OC(N2C(=O)NC(=O)[C@@H]3C=C4CCCCC4=C[C@@H]32)C(OC)C1OC (some centres not stated)
> 100 µM

So what's the measured TGI for this one? O=C(Nc1ccccc1C(=O)NCCCO)/C(=C/c1ccccc1O)NC(=O)c1ccccc1
> 100 µM

So what's the measured TGI for this one? CC(C)(C)c1cc(/C=C(\C#N)C(=O)NCCO)cc(C(C)(C)C)c1O
61.9 µM

###

- Tested on: U251 CNS
- experimental details: NCI tumour cell line growth inhibition, 48 h
Measured TGI of individual entries
Note: unit µM is implicit; provide only the numeric part.

# count of solved cases: 3
compound: CCC(C)c1c(Cl)nc(Cl)nc1Cl (stereo unspecified)
target or test system: U251 CNS
readout label: TGI
value observed: 15.4
//
compound: O=[N+]([O-])c1ccc(NC(=S)N=Nc2c(O)[nH]c3ccc(Br)cc23)cc1
target or test system: U251 CNS
readout label: TGI
value observed: 21.9
//
compound: CC1(CNCc2ccccc2)CC(CCc2ccccc2)N(C(=O)c2ccc([N+](=O)[O-])cc2)C1Cc1ccc(O)cc1 (stereo unspecified)
target or test system: U251 CNS
readout label: TGI
value observed: 26.2

Query compound follows.
So what's the measured TGI for this one? O=c1[nH]ncc(Br)c1Br
3.02

###

- Tested on: OVCAR-8 ovarian
- experimental details: NCI tumour cell line growth inhibition, 48 h
Measured TGI of individual entries

compound: COc1cc(/C=C\C(=O)O)ccc1OCc1ccccc1
TGI: > 100 µM
--
compound: COc1cc(C2NC(=O)c3ccccc3N2)ccc1OCCCCCOc1c(OC)cc(C2=NOC(c3cc(OC)c(OC)c(OC)c3)C2)cc1OC (stereo not given)
TGI: > 100 µM
--
compound: COCC1OC(N2C(=O)NC(=O)[C@@H]3C=C4CCCCC4=C[C@@H]32)C(OC)C1OC (stereo not given in full)
TGI: > 100 µM
--
compound: COc1ccc(NC2=CC(=O)C(=O)c3ccccc32)nn1
TGI: 5.35 µM
--
compound: COc1cc([N+](=O)[O-])cc2c3c(n(C)c12)[C@@]1(C)CCC2c4ccc(OCc5ccccc5)cc4CCC2C1C3 (stereo not given in full)
TGI: > 100 µM
--
compound: Cn1c2ccccc2c2c(-c3ccccc3)[n+]3ccncc3nc21
TGI: > 100 µM
--
compound: CCOC(=O)[C]1([Bi]([CH3])[CH3])N=NC(C(=O)OC)=C1C(=O)OC (stereo not given)
TGI: 42.3 µM
--
compound: CC1=NN(C(=O)Nc2ccccc2)C(=O)C2CCC(=O)N12 (stereo not given)
TGI: > 100 µM

So what's the measured TGI for this one? COC1(OC)CCCCC2c3cccc(OC(C)=O)c3C21OC(C)=O (stereo not given)
> 100 µM

So what's the measured TGI for this one? Cc1cc2ncc3c(=O)n(NS(=O)(=O)c4ccc(N)cc4)ccc3n2n1
> 100 µM

###

- System: MALME-3M melanoma
- experimental details: NCI tumour cell line growth inhibition, 48 h
Response key: satisfied means TGI >= 30 µM; not satisfied means TGI < 30 µM.

Would you say C=C1CC(C)(c2ccc(Nc3nc4ccccc4c4occc34)cc2)OC1=O (stereo not drawn) shows TGI at minimum 30 µM?
satisfied

Would you say Cc1ccc(NC(=O)c2cccc(N(C)C)c2)cc1NC(=O)c1ccc(O)cc1 shows TGI at minimum 30 µM?
satisfied

Would you say [Cl-].[Dy+3].[O-]/N=C(\c1ccccc1)c1ccccn1.[O-]/N=C(\c1ccccc1)c1ccccn1.[O-]/N=C(\c1ccccc1)c1ccccn1 shows TGI at minimum 30 µM?
satisfied

Would you say Nc1ccc2[nH]c(-c3cccc(Cl)c3)cc(=O)c2c1 shows TGI at minimum 30 µM?
satisfied

Would you say CC1(CNCc2ccccc2)CC(CCc2ccccc2)N(C(=O)c2ccc([N+](=O)[O-])cc2)C1Cc1ccc(O)cc1 (stereo not drawn) shows TGI at minimum 30 µM?
satisfied

Would you say COc1ccc(-c2cc(=O)c3c(OC)c(OC)c(OC)cc3o2)cc1 shows TGI at minimum 30 µM?
satisfied

Would you say N#CSc1c[nH]c2cccc(/C=C/C(=O)/C=C(/C=C/c3cccc4[nH]cc(SC#N)c34)OB(F)F)c12 shows TGI at minimum 30 µM?
not satisfied

###

- Test system: HCC-2998 colon
- experimental details: NCI tumour cell line growth inhibition, 48 h
Measured TGI of individual entries

# count of solved cases: 8
compound: Nc1ccc2[nH]c(-c3cccc(Cl)c3)cc(=O)c2c1
readout label: TGI
value observed: 54.4 µM
--
compound: O=C1C2c3[nH]c4ccccc4c3C3CCCCCCC3C2C(=O)N1c1ccccc1 (configuration not stated)
readout label: TGI
value observed: > 100 µM
--
compound: CC(=S)N=Cc1c(O)cc(C)oc1=O
readout label: TGI
value observed: > 100 µM
--
compound: O=C(CSc1n[nH]c(=O)[nH]c1=O)NNC(=O)c1cccc2nc3ccccc3nc12
readout label: TGI
value observed: > 100 µM
--
compound: Oc1ccc(CN2CCC(N3CCCCC3)CC2)c2cccnc12
readout label: TGI
value observed: > 100 µM
--
compound: COC(=O)/C=C/c1cc(OC)c(OC)c(OC)c1
readout label: TGI
value observed: > 100 µM
--
compound: COc1ccc(-c2c(C#N)c(N)nc3c2CCS(=O)(=O)c2ccccc2-3)cc1
readout label: TGI
value observed: > 100 µM
--
compound: O/N=C/C1c2ccccc2-c2ccccc21
readout label: TGI
value observed: 31.9 µM

Entry OCc1c[nH]c2ccccc12 , system HCC-2998 colon: what TGI was measured?
41 µM

Entry CC(C)(C)C1CCC2(CC1)c1[nH]c3ccccc3c1C1(CCC(C(C)(C)C)CC1)c1[nH]c3ccccc3c12 (configuration not stated) , system HCC-2998 colon: what TGI was measured?
> 100 µM

Entry COC(=O)C1Cc2c(n(Cc3ccccc3)c3ccccc23)C(CCC(=O)O)N1C(C)C (configuration not stated) , system HCC-2998 colon: what TGI was measured?
> 100 µM

Entry COC(=O)[C@]12CC[C@@H](C)[C@H](C)[C@@H]1C1=CC[C@@H]3[C@@]4(C)C/C(=N\O)[C@H](O)[C@@]5(C)COC(=C45)C[C@@]3(C)[C@]1(C)CC2 , system HCC-2998 colon: what TGI was measured?
24.9 µM

Entry COC1(OC)CCCCC2c3cccc(OC(C)=O)c3C21OC(C)=O (configuration not stated) , system HCC-2998 colon: what TGI was measured?
> 100 µM

Entry O=C1C=CC(=O)c2c(O)c(NCCc3ccc(O)cc3)c(Cl)c(O)c21 , system HCC-2998 colon: what TGI was measured?
> 10 µM

Entry O=C(O)C(CS)N=c1c2ccccc2n(O)c2ccccc12 (configuration not stated) , system HCC-2998 colon: what TGI was measured?
> 100 µM

Entry COc1ccc(-c2cnnc3c(-c4cccc(C(F)(F)F)c4)cnn23)cc1 , system HCC-2998 colon: what TGI was measured?
> 100 µM
